B1: HDV Ribozyme (parent)
chain: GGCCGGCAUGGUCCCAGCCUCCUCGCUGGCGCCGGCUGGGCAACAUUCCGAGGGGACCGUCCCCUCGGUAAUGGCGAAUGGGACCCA

- Variants of: B1
- Method: self-cleavage, relative activity (ratio to wild type); higher = more cleavage; co-transcriptional
Respond with yes for self-cleavage values of 0.4 and above, no for values below.

**Query** Does the reported self-cleavage for GGCCGGCAUGGUCCCAGCCUCCUCGCUGGCGCCGGCUGGACAACAUUCCGAGGGGACCGGCCCCUCGGUAAUGGCGAAUGGGACCCA fall at or above the 0.4 mark?
**Result** yes

**Query** Does the reported self-cleavage for GGCCGGCAUGGUCCCAGCCUCCUCGCUGGCGCCGGCUGGGCAAAAUUCCGAGGGGACCGUCCCCUUGGUAAUGGCGAAUGGGACCCA fall at or above the 0.4 mark?
**Result** yes

**Query** Does the reported self-cleavage for GGCCGGCAUGGUCCCAGCCUGCUCGCUGGCGCCGGCUGGGCAACAUUCCGAGGGGACCGUCCCCUCGGUAACGGCGAAUGGGACCCA fall at or above the 0.4 mark?
**Result** no

**Query** Does the reported self-cleavage for GGCCGGCAUGGUCCCAGCCUCCUCGCUGGCGCCGCCUGGGCAACAUUCCGAGGGGACCGUCCCCUCGUUAAUGGCGAAUGGGACCCA fall at or above the 0.4 mark?
**Result** no

**Query** Does the reported self-cleavage for GGCAGGCAUGGUCCCAGCCUCCUCGCUGGCCCCGGCUGGGCAACAUUCCGAGGGGACCGUCCCCUCGGUAAUGGCGAAUGGGACCCA fall at or above the 0.4 mark?
**Result** no

**Query** Does the reported self-cleavage for GGCCGGCAUGGUCCCAGCCUGCUCGCUGGCGCCGGCUGGGCAACAUUCCGAGGGGACCGUCCGCUCGGUAAUGGCGAAUGGGACCCA fall at or above the 0.4 mark?
**Result** no

**Query** Does the reported self-cleavage for GGCCGGCAUGGUCCCAGCCUCCUCGCUGGCGCCGGCUGGGCAACAUUCCGAGGGUACCGUCCCCUCCGUAAUGGCGAAUGGGACCCA fall at or above the 0.4 mark?
**Result** yes

**Query** Does the reported self-cleavage for GGCCGGCAUGGUCCCAGCCUUCUCGCUGGCGCCGGCUGGGCAACAUUCCGAGGGGACCGUCCCCUCGGUAAUGGCGUAUGGGACCCA fall at or above the 0.4 mark?
**Result** no

**Query** Does the reported self-cleavage for GACCGGCAUGGUCCCAGCCUCCUCGGUGGCGCCGGCUGGGCAACAUUCCGAGGGGACCGUCCCCUCGGUAAUGGCGAAUGGGACCCA fall at or above the 0.4 mark?
**Result** no

**Query** Does the reported self-cleavage for AGCCGGCAUGGUCCCAGCCUCCUCGCUGGCGCCGGCUGGGCAACAUUCCGAGGGGACCGUCCCCUCGGUAAUGGCGCAUGGGACCCA fall at or above the 0.4 mark?
**Result** no

The values you see were collected from the RNAGym collection of RNA variant scans (doi:10.7554/elife.80360).
